Biological target: Neuronal acetylcholine receptor; alpha4/beta2 (Homo sapiens, UniProt P17787+P43681)
Experiment: Inhibition of human alpha4beta2 nAChR at 10 uM by binding assay
Tag: met if measured inhibition is not below 20%, not met if it is.

compound | assigned-class
Brc1ccc2oc(N3CCNC[C@@H]3COc3cccnc3)nc2c1 | met
O=C(c1ccccc1)c1ccc(NC(=O)N2CCNCC2COc2cccnc2)cc1 (racemic) | not met
COc1ccc(NC(=O)N2CCNC[C@@H]2COc2cccnc2)cc1.Cl | not met
COc1ccc(NC(=O)N2CCNCC2COc2cccnc2)cc1Cl (racemic) | met
c1cncc(OCC2CNCCN2c2nc3ccccc3o2)c1 (racemic) | met
COc1ccc(OC(=O)N2CCNCC2COc2cccnc2)cc1 (racemic) | met

----------
Listed here are molecules together with their documented inhibition.
Target: 5-hydroxytryptamine receptor 3A (Homo sapiens)
Sequence (whole entry): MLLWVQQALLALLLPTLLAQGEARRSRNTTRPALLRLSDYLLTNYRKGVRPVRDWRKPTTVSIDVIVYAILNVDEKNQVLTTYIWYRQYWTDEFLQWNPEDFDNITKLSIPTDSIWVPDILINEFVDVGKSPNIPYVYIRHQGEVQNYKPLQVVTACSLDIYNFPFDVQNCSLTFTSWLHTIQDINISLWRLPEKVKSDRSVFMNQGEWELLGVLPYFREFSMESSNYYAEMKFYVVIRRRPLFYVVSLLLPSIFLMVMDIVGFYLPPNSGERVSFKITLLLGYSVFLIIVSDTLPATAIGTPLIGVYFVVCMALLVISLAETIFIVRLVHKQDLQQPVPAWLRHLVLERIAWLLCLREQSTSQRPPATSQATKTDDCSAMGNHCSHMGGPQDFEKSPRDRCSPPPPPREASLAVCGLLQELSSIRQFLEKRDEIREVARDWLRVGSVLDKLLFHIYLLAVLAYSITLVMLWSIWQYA
Assay: Inhibition of 5-HT3 receptor (unknown origin) at 10 uM

molecule | readout-units | inhibition
COc1ccc(NC(=O)N2CCNCC2COc2cccnc2)cc1 (racemic) | % | 23
Fc1cc(F)c2nc(N3CCNCC3COc3cccnc3)sc2c1 (racemic) | % | 91
COc1ccc(OC(=O)N2CCNCC2COc2cccnc2)cc1 (racemic) | % | 39
c1cncc(OCC2CNCCN2c2nc3ccccc3o2)c1 (racemic) | % | 95
COc1ccc2nc(N3CCNC[C@@H]3COc3cccnc3)sc2c1 | % | 99
Fc1cccc2sc(N3CCNCC3COc3cccnc3)nc12 (racemic) | % | 99
O=C(Nc1ccc(Br)cc1F)N1CCNCC1COc1cccnc1 (racemic) | % | 47
O=C(c1ccccc1)c1ccc(NC(=O)N2CCNCC2COc2cccnc2)cc1 (racemic) | % | 16
Brc1ccc2oc(N3CCNC[C@@H]3COc3cccnc3)nc2c1 | % | 100
COc1ccc(NC(=O)N2CCNC[C@H]2COc2cccnc2)cc1 | % | 7

----------
Experiment: Ratio of drug uptake in brain to plasma in iv dosed mouse measured after 5 to 30 mins
Assay type: ADME, organism-based
Settings: brain and plasma, read-out: BPR

entry-smiles | Kp
COc1ccc(NC(=O)N2CCNC[C@@H]2COc2cccnc2)cc1.Cl | ≤ 0.06

----------
Target: CYP3A4 (Homo sapiens)
Sequence (P08684 whole entry): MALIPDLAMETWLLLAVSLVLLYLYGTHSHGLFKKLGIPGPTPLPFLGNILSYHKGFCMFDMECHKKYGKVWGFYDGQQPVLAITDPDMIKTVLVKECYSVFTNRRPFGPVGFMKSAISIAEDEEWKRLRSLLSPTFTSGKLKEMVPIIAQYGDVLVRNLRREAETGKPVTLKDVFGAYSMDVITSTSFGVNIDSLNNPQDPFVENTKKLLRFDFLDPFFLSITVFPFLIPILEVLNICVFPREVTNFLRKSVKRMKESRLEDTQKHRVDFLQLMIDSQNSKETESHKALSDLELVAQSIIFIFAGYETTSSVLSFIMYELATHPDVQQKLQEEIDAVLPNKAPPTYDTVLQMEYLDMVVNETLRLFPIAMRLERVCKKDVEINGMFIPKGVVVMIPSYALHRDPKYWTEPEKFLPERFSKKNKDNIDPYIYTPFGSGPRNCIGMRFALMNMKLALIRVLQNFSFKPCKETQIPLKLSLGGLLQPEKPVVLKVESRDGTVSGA
Test: Inhibition of CYP3A4 (unknown origin) at 10 uM
Type: ADME
Classes by inhibition at 10 µM: lower range (below 20%), middle range (20% to below 70%), upper range (70% or more)

compound | assigned-class
Fc1cc(F)c2nc(N3CCNCC3COc3cccnc3)sc2c1 (racemic) | upper range
COc1ccc(NC(=O)N2CCNCC2COc2cccnc2)cc1Cl (racemic) | middle range
COc1ccc(NC(=O)N2CCNCC2COc2cccnc2)cc1 (racemic) | lower range
Fc1cccc2sc(N3CCNCC3COc3cccnc3)nc12 (racemic) | upper range
O=C(Nc1ccc(Br)cc1F)N1CCNCC1COc1cccnc1 (racemic) | middle range
O=C(c1ccccc1)c1ccc(NC(=O)N2CCNCC2COc2cccnc2)cc1 (racemic) | middle range
Cl.c1cncc(OC[C@H]2CNCCN2c2nc3ncccc3o2)c1 | lower range
COc1ccc2nc(N3CCNC[C@@H]3COc3cccnc3)sc2c1 | middle range
c1cncc(OCC2CNCCN2c2nc3ccccc3o2)c1 (racemic) | lower range
Cc1cc(NC(=O)N2CCNCC2COc2cccnc2)ccc1Br (racemic) | upper range
